- measurementTarget: T1, human Type 1 mutCALR on Ba/F3 cells expressing MPL and Type 1 mutCALR (human)
- T1 chain: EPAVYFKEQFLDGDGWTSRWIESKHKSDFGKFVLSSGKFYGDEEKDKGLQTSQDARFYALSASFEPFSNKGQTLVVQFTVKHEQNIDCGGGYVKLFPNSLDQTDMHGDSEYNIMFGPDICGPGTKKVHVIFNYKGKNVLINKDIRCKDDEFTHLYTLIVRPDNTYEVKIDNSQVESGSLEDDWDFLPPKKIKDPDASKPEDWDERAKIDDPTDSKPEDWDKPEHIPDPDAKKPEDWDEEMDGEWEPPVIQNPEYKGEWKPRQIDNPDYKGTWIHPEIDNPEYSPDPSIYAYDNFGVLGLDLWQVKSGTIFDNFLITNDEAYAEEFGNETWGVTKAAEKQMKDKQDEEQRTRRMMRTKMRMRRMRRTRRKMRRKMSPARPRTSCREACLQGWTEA
- experimentSummary: cell-based or functional assay
Class assignment keyed on IC50, inhibition of pSTAT5, ranges low: < 0.2 µg/mL; mid: ≥ 0.2 µg/mL and < 0.5 µg/mL; high: ≥ 0.5 µg/mL

Example results:
Input line: Record anti-mutCALR antibody clone 1 (antibody, human IgG1, lambda, V domains shown, human IgG1) VH: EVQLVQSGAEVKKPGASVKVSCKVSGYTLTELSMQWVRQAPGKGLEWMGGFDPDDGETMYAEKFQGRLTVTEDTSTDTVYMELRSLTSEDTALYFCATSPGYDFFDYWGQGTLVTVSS VL: SYVLTQPPSVSVAPGKTARITCGGNYIGSKSVHWYQQKPGQAPVLVVYDDGDRPSGIPARFSGSNSGNTATLTISRVEAGDEADYYCQVWDSISDHVVFGGGTKLTVLG — which class?
Output line: mid

Input line: Into which bin does this binder go? anti-mutCALR antibody clone 30 (antibody, human IgG1, lambda, V domains shown, human IgG1) VH: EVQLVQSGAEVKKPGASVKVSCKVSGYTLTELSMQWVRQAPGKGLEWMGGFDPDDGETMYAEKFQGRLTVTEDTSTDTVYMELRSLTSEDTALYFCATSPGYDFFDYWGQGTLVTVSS VL: SYVLTQPPSVSVAPGKTATITCGGNNIGTKSVHWYQQKPGQAPVLVVYDDSDRPSGIPERFSGSNSGNTATLTINRVEAGDEADYYCQVWDSSNDLLIFGGGTKLTVLG
Output line: low

New cases:
Input line: Band for the recorded IC50, inhibition of pSTAT5 of anti-mutCALR antibody clone 22 (antibody, human IgG1, lambda, V domains shown, human IgG1) VH: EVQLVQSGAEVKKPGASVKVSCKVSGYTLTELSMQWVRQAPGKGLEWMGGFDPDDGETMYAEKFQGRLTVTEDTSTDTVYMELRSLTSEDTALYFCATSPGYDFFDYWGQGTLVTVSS VL: SYVLTQPPSVSVAPGKTARITCGGNNIGSKNVHWYQQKPGQAPVLVVYDDSDRPSGIPERFSGSNSGNTATLTINRVEAGDEADYYCQVWDSSNDLLIFGGGTKLTVLG ?
Output line: low

Input line: In plain terms, what class is anti-mutCALR antibody clone 49 (antibody, human IgG1, lambda, V domains shown, human IgG1) VH: EVQLVQSGAEVKKPGSSVKVSCKASGGTFSSYAISWVRQAPGQGLEWMGGIIPIFGTANYAQKFQGRVTITADESTSTAYMELSSLRSEDTAVYYCASSPLRGSGWYWHYYYGMDVWGQGTTVTVSS VL: SYELTQPPSVSVAPGKTARITCGGNNIRAKHVHWYQQKPGQSPVLVIYQDSKRPSGIPERFSGSNSGSTATLTISRVEAGDEADYYCQVWDSSTVVFGGGTKLTVLG ?
Output line: high

Input line: Entry anti-mutCALR antibody clone 5 (antibody, human IgG1, lambda, V domains shown, human IgG1) VH: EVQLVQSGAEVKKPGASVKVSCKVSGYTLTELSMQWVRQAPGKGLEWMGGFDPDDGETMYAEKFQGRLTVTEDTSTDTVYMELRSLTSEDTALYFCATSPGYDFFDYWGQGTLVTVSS VL: SYVLTQPPSVSVAPGQTASITCVGTNFGSKNVHWYQQRPGQAPVLVVYDDSDRPSGIPERFSGSNSGNTATLTISRVEAGDEADYYCQVWDSSSDHLIFGGGTKLTVLG belongs to which category?
Output line: low

Input line: Field: class (IC50, inhibition of pSTAT5) — entry: anti-mutCALR antibody clone 53 (antibody, human IgG1, lambda, V domains shown, human IgG1) VH: QVQLVQSGAEVKKPGASVKVSCKVSGYTLTELSMHWVRQAPGKGLEWMGGFDPEDGETIYAQKFQGRVTMTEDTSTDTAYMELSSLRSEDTAVYYCATDIQGLAEFDYWGQGTLVTVSS VL: QSALTQPRSVSGSPGQSVTISCTGTNTDVGAYIDVSWYQQHPGKAPKLIIYDVSKWPSGVPDRFSGSKSGNTASLTISGLQAEDEADYYCCSYAGNHSFSFGGGTKVTVLG
Output line: mid

Input line: Band for the recorded IC50, inhibition of pSTAT5 of anti-mutCALR antibody clone 41 (antibody, human IgG1, lambda, V domains shown, human IgG1) VH: EVQLVQSGAEVKKPGASVKVSCKVSGYTLTELSMHWVRQAPGKGLEWMGLVDPEDGETIYAQKFQGRVTMTEDTSTDTAYMELSSLRSEDTAVYYCAREEWSGDGDDAFDIWGQGTMVTVSS VL: QSVLTQPPSVSAAPGQKVTISCSGSSSNIGSYSVSWYQQLPGTAPKLLIYDNNKRPSGIPDRFSGSNSGTSATLGITGLQTGDEADYYCGTWDSSLSAWVFGGGTKLTVLG ?
Output line: mid

Input line: Hi, small favor: classify anti-mutCALR antibody clone 32 (antibody, human IgG1, lambda, V domains shown, human IgG1) VH: QVQLVQSGAEVKKPGATVKISCKVSGYSFTDYFIHWVQQAPGKGLAWVGLVDPEDGETIYAEKFQGRVTITADTSTDTAYMELSSLRSEDTAVYYCATPGGILTDPDAFDIWGQGTMVTVSS VL: QSALTQPASVSGSPGQSITISCTGTSSDVGGYNYVSWYQQHPGKAPKLMIYEVSNRPSGVSNRFSGSKSGNTASLTISGLQAEDEADYYCSSYTSSSTPYVFGTGTKVTVLG by its IC50, inhibition of pSTAT5 when you get a moment.
Output line: mid

Input line: Hi, small favor: classify anti-mutCALR antibody clone 50 (antibody, human IgG1, lambda, V domains shown, human IgG1) VH: QMQLVQSGAEVKKPGSSVKVSCKASGGTFSSYAISWVRQAPGQGLEWMGGIIPIFGTANYAQKFQGRVTITADESTSTAYMELSSLRSEDTAVYYCASSPLRGSGWYWHYYYGMDVWGQGTTVTVSS VL: SYVLTQPPSVSVAPGKTARITCGGNNIGTKSVHWYQQKPGQSPVLVIYQDRKRPSGIPERFSGSNSGNTATLTISGTQAMDEADYYCQVWDSSTEVFGGGTKLTVLG by its IC50, inhibition of pSTAT5 when you get a moment.
Output line: high
